Ref: the supplement of paper PMC10627819

Test system: S. pneumoniae D39V
Assay: Bliss interaction score (quartile over a dose matrix) (fitness difference); higher = more antagonism (negative = synergy);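 further: first quartile when negative (synergy) and third quartile when positive (antagonism)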
MEASURED PROPERTY: Bliss interaction score

* COc1c(N2C[C@@H]3CCCN[C@@H]3C2)c(F)cc2c(=O)c(C(=O)O)cn(C3CC3)c12 [Moxifloxacin] + CC1=C\[C@@H](O)CC(=O)Cc2nc(co2)C(=O)N2CCC=C2C(=O)O[C@H](C(C)C)[C@H](C)/C=C/C(=O)NC\C=C\1 [Virginiamycin M1] | 0.065
* O=C(O[C@@H]1Cc2c(O)cc(O)cc2O[C@@H]1c1cc(O)c(O)c(O)c1)c1cc(O)c(O)c(O)c1 [EGCG] + CC[C@H]1OC(=O)[C@H](C)C(=O)[C@H](C)[C@@H](O[C@@H]2O[C@H](C)C[C@H](N(C)C)[C@H]2O)[C@](C)(OC)C[C@@H](C)C(=O)[C@H](C)[C@H]2N(CCCCn3cnc(-c4cccnc4)c3)C(=O)O[C@]12C [Telithromycin] | 0.0892
* CCC[C@@H]1C[C@@H](C(=O)N[C@@H]([C@H]2O[C@H](SC)[C@H](O)[C@@H](O)[C@H]2O)[C@@H](C)O)N(C)C1 [Lincomycin] + Oc1cc(Cl)ccc1Oc1ccc(Cl)cc1Cl [Triclosan] | -0.119
* O=C(N[C@H](CO)[C@H](O)c1ccc([N+](=O)[O-])cc1)C(Cl)Cl [Chloramphenicol] + CN[C@@H]1[C@H](O)[C@H](NC)[C@H]2O[C@@]3(O)C(=O)C[C@@H](C)O[C@H]3O[C@@H]2[C@H]1O [Spectinomycin] | -0.0595
* C[C@@H](O)[C@H]1C(=O)N2C(C(=O)O)=C(SCCNC=N)C[C@H]12 [Imipenem] + COc1cc(Cc2cnc(N)nc2N)cc(OC)c1OC [Trimethoprim] | 0.153
* O=C(O[C@@H]1Cc2c(O)cc(O)cc2O[C@@H]1c1cc(O)c(O)c(O)c1)c1cc(O)c(O)c(O)c1 [EGCG] + C[C@H]1COc2c(N3CCN(C)CC3)c(F)cc3c(=O)c(C(=O)O)cn1c23 [Levofloxacin] | -0.092
* CC(=O)O[C@H]1C[C@@]2(C)[C@@H](C[C@@H](O)[C@H]3[C@@]4(C)CC[C@@H](O)[C@@H](C)[C@@H]4CC[C@@]32C)/C1=C(\CCC=C(C)C)C(=O)O [Fusidic acid] + Cc1cc(NS(=O)(=O)c2ccc(N)cc2)no1 [Sulfamethoxazol] | 0.0975
* CC(=O)OC[C@H]1O[C@@H]([S-])[C@H](OC(C)=O)[C@@H](OC(C)=O)[C@@H]1OC(C)=O.CCP(CC)CC.[Au+] [Auranofin] + CCC[C@@H]1C[C@@H](C(=O)N[C@@H]([C@H]2O[C@H](SC)[C@H](O)[C@@H](O)[C@H]2O)[C@@H](C)O)N(C)C1 [Lincomycin] | -0.0496

====

Test system: S. aureus Newman
Test: Bliss interaction score (quartile over a dose matrix) (fitness difference); higher = more antagonism (negative = synergy)
MEASURED PROPERTY: Bliss interaction score

- O=C(N[C@H](CO)[C@H](O)c1ccc([N+](=O)[O-])cc1)C(Cl)Cl [Chloramphenicol] + O=C(O)[C@H]1/C(=C/CO)O[C@@H]2CC(=O)N21 [Clavulanic]: 0.202
- O=C(O[C@@H]1Cc2c(O)cc(O)cc2O[C@@H]1c1cc(O)c(O)c(O)c1)c1cc(O)c(O)c(O)c1 [EGCG] + CC[C@H]1OC(=O)[C@H](C)C(=O)[C@H](C)[C@@H](O[C@@H]2O[C@H](C)C[C@H](N(C)C)[C@H]2O)[C@](C)(OC)C[C@@H](C)C(=O)[C@H](C)[C@H]2N(CCCCn3cnc(-c4cccnc4)c3)C(=O)O[C@]12C [Telithromycin]: 0.0859

====

Reported values of Bliss interaction score for individual entries
Test system: S. aureus DSM 20231
Assay: Bliss interaction score (quartile over a dose matrix) (fitness difference); higher = more antagonism (negative = synergy)
MEASURED PROPERTY: Bliss interaction score

• O=C(N[C@H](CO)[C@H](O)c1ccc([N+](=O)[O-])cc1)C(Cl)Cl [Chloramphenicol] + CCN(CC)CCOC(=O)c1ccc(N)cc1 [Procaine] = -0.0791
• O=C1CN(/N=C/c2ccc([N+](=O)[O-])o2)C(=O)N1 [Nitrofurantoin] + CN(N=O)C(=O)N[C@@H](C=O)[C@@H](O)[C@H](O)[C@H](O)CO [Streptozotocin] = -0.034
• CC(=O)O[C@H]1C[C@@]2(C)[C@@H](C[C@@H](O)[C@H]3[C@@]4(C)CC[C@@H](O)[C@@H](C)[C@@H]4CC[C@@]32C)/C1=C(\CCC=C(C)C)C(=O)O [Fusidic acid] + CO[C@H]1/C=C/O[C@@]2(C)Oc3c(C)c(O)c4c(O)c(c(/C=N/N5CCN(C)CC5)c(O)c4c3C2=O)NC(=O)/C(C)=C\C=C\[C@H](C)[C@H](O)[C@@H](C)[C@@H](O)[C@@H](C)[C@H](OC(C)=O)[C@@H]1C [Rifampicin] = 0.0497
• CCC[C@@H]1C[C@@H](C(=O)N[C@@H]([C@H]2O[C@H](SC)[C@H](O)[C@@H](O)[C@H]2O)[C@H](C)Cl)N(C)C1 [Clindamycin] + N[C@@H]1CONC1=O [CycloserineD] = -0.101
• CCN(CC)CCOc1ccc(C(=C(Cl)c2ccccc2)c2ccccc2)cc1 [Clomiphene] + O=C(O[C@@H]1Cc2c(O)cc(O)cc2O[C@@H]1c1cc(O)c(O)c(O)c1)c1cc(O)c(O)c(O)c1 [EGCG] = 0.241
• O=C(N[C@H](CO)[C@H](O)c1ccc([N+](=O)[O-])cc1)C(Cl)Cl [Chloramphenicol] + CO[C@H]1/C=C/O[C@@]2(C)Oc3c(C)c(O)c4c(O)c(c(/C=N/N5CCN(C)CC5)c(O)c4c3C2=O)NC(=O)/C(C)=C\C=C\[C@H](C)[C@H](O)[C@@H](C)[C@@H](O)[C@@H](C)[C@H](OC(C)=O)[C@@H]1C [Rifampicin] = 0.0582

====

Tested on: B. subtilis 168
Assay: Bliss interaction score (quartile over a dose matrix) (fitness difference); higher = more antagonism (negative = synergy)
MEASURED PROPERTY: Bliss interaction score

* CC[C@H]1OC(=O)[C@H](C)[C@@H](O[C@H]2C[C@@](C)(OC)[C@@H](O)[C@H](C)O2)[C@H](C)[C@@H](O[C@@H]2O[C@H](C)C[C@H](N(C)C)[C@H]2O)[C@](C)(OC)C[C@@H](C)C(=O)[C@H](C)[C@@H](O)[C@]1(C)O [Clarithromycin] + CO[C@H]1/C=C/O[C@@]2(C)Oc3c(C)c(O)c4c(O)c(c(/C=N/N5CCN(C)CC5)c(O)c4c3C2=O)NC(=O)/C(C)=C\C=C\[C@H](C)[C@H](O)[C@@H](C)[C@@H](O)[C@@H](C)[C@H](OC(C)=O)[C@@H]1C [Rifampicin] | 0.0788
* CC(=O)O[C@H]1C[C@@]2(C)[C@@H](C[C@@H](O)[C@H]3[C@@]4(C)CC[C@@H](O)[C@@H](C)[C@@H]4CC[C@@]32C)/C1=C(\CCC=C(C)C)C(=O)O [Fusidic acid] + CN1C2=CC=CC=C2N=C3C1=CC=CC3=O [Pyocyanin] | 0.0385
* CC[C@H]1OC(=O)[C@H](C)[C@@H](O[C@H]2C[C@@](C)(OC)[C@@H](O)[C@H](C)O2)[C@H](C)[C@@H](O[C@@H]2O[C@H](C)C[C@H](N(C)C)[C@H]2O)[C@](C)(OC)C[C@@H](C)C(=O)[C@H](C)[C@@H](O)[C@]1(C)O [Clarithromycin] + Cc1ncc([N+](=O)[O-])n1CCO [Metronidazole] | 0.103
* N[C@@H]1CONC1=O [CycloserineD] + CC[C@H]1OC(=O)[C@H](C)C(=O)[C@H](C)[C@@H](O[C@@H]2O[C@H](C)C[C@H](N(C)C)[C@H]2O)[C@](C)(OC)C[C@@H](C)C(=O)[C@H](C)[C@H]2N(CCCCn3cnc(-c4cccnc4)c3)C(=O)O[C@]12C [Telithromycin] | 0.0974
* COc1c(N2C[C@@H]3CCCN[C@@H]3C2)c(F)cc2c(=O)c(C(=O)O)cn(C3CC3)c12 [Moxifloxacin] + Cc1onc(-c2ccccc2)c1C(=O)N[C@@H]1C(=O)N2[C@@H]1SC(C)(C)[C@@H]2C(=O)O [Oxacillin] | 0.0214
* CC(=O)O[C@H]1C[C@@]2(C)[C@@H](C[C@@H](O)[C@H]3[C@@]4(C)CC[C@@H](O)[C@@H](C)[C@@H]4CC[C@@]32C)/C1=C(\CCC=C(C)C)C(=O)O [Fusidic acid] + Clc1ccc(COC(Cn2ccnc2)c2ccc(Cl)cc2Cl)c(Cl)c1 [Miconazole] | -0.0605
* COc1c(N2C[C@@H]3CCCN[C@@H]3C2)c(F)cc2c(=O)c(C(=O)O)cn(C3CC3)c12 [Moxifloxacin] + CC1(C)S[C@@H]2[C@H](NC(=O)Cc3ccccc3)C(=O)N2[C@H]1C(=O)O [PenicillinG] | 0.0377
* CC(=O)OC[C@H]1O[C@@H]([S-])[C@H](OC(C)=O)[C@@H](OC(C)=O)[C@@H]1OC(C)=O.CCP(CC)CC.[Au+] [Auranofin] + CC[C@H]1OC(=O)[C@H](C)[C@@H](O[C@H]2C[C@@](C)(OC)[C@@H](O)[C@H](C)O2)[C@H](C)[C@@H](O[C@@H]2O[C@H](C)C[C@H](N(C)C)[C@H]2O)[C@](C)(OC)C[C@@H](C)C(=O)[C@H](C)[C@@H](O)[C@]1(C)O [Clarithromycin] | 0.0346
* O=C(O[C@@H]1Cc2c(O)cc(O)cc2O[C@@H]1c1cc(O)c(O)c(O)c1)c1cc(O)c(O)c(O)c1 [EGCG] + C[n+]1ccc(-c2cc[n+](C)cc2)cc1 [Paraquat] | 0.0809
* CC(=O)OC[C@H]1O[C@@H]([S-])[C@H](OC(C)=O)[C@@H](OC(C)=O)[C@@H]1OC(C)=O.CCP(CC)CC.[Au+] [Auranofin] + CO/N=C(\C(=O)N[C@@H]1C(=O)N2C(C(=O)O)=C(COC(C)=O)CS[C@H]12)c1csc(N)n1 [Cefotaxime] | -0.0473
* CC[C@H]1OC(=O)[C@H](C)[C@@H](O[C@H]2C[C@@](C)(OC)[C@@H](O)[C@H](C)O2)[C@H](C)[C@@H](O[C@@H]2O[C@H](C)C[C@H](N(C)C)[C@H]2O)[C@](C)(OC)C[C@@H](C)C(=O)[C@H](C)[C@@H](O)[C@]1(C)O [Clarithromycin] + C/C(=C\C(=O)OCCCCCCCCC(=O)O)C[C@@H]1OC[C@H](C[C@@H]2O[C@H]2[C@@H](C)[C@H](C)O)[C@@H](O)[C@H]1O [Pseudomonic acid] | 0.0528
* CCC[C@@H]1C[C@@H](C(=O)N[C@@H]([C@H]2O[C@H](SC)[C@H](O)[C@@H](O)[C@H]2O)[C@H](C)Cl)N(C)C1 [Clindamycin] + Cc1cc(NS(=O)(=O)c2ccc(N)cc2)no1 [Sulfamethoxazol] | -0.0677
* CC[C@H]1OC(=O)[C@H](C)[C@@H](O[C@H]2C[C@@](C)(OC)[C@@H](O)[C@H](C)O2)[C@H](C)[C@@H](O[C@@H]2O[C@H](C)C[C@H](N(C)C)[C@H]2O)[C@](C)(OC)C[C@@H](C)C(=O)[C@H](C)[C@@H](O)[C@]1(C)O [Clarithromycin] + CN(C)C(=O)C(CCN1CCC(O)(c2ccc(Cl)cc2)CC1)(c1ccccc1)c1ccccc1 [Loperamide] | 0.0248
* O=C(O[C@@H]1Cc2c(O)cc(O)cc2O[C@@H]1c1cc(O)c(O)c(O)c1)c1cc(O)c(O)c(O)c1 [EGCG] + C[C@@H](O)[C@H]1C(=O)N2C(C(=O)O)=C(SCCNC=N)C[C@H]12 [Imipenem] | 0.185
